Quick reference for IC50 among some compounds
target: PI3K δ (Homo sapiens); construct: purchased Upstate / Millipore Corporation; assay: PI 3-Kinase (human) HTRF assay, PI3K δ; assay type: biochemical; details: read-out: PI3K δ IC50

{"columns": ["compound", "IC50"],
 "data": [
  ["CN1CCN(c2cnc3ccc(-c4ccc5sc(N)nc5c4)cc3n2)CC1", "> 10 µM"],
  ["CC(=O)Nc1nc2cc(-c3cc(F)c4oc(N)nc4c3)ccc2s1", "> 10 µM"],
  ["Nc1nc2cc(-c3ccc4ncc(N5CC(N6CCNCC6)C5)nc4c3)ccc2o1", "< 1 µM"],
  ["Nc1nc2cc(-c3ccc4ncn(C5CCCC5)c(=O)c4c3)ccc2o1", "> 10 µM"],
  ["CO[C@H]1CCN(C(=O)c2cnc3ccc(-c4ccc5oc(N)nc5c4)cn23)C1", "< 10 µM"],
  ["Nc1nc2cc(-c3ccc4ncc(N5CC(N6CCCC6)C5)nc4c3)ccc2o1", "< 10 µM"],
  ["CN(C)CCn1cnc2ccc(-c3ccc4oc(N)nc4c3)cc2c1=O", "> 10 µM"],
  ["CN(C)CC(=O)N1CCN(c2cnc3ccc(-c4ccc5oc(N)nc5c4)cc3n2)CC1 [Compound 139]", "< 1 µM"],
  ["Nc1nc2cc(-c3ccc4ncc(C(=O)N5CCC6(C5)OCCO6)n4c3)ccc2o1", "> 10 µM"]
]}

###

target: PI3K δ (Homo sapiens, UniProt O00329); construct: purchased Upstate / Millipore Corporation; experiment: PI 3-Kinase (human) HTRF assay, PI3K δ; type: biochemical; details: read-out: PI3K δ IC50
Sequence (O00329 whole entry): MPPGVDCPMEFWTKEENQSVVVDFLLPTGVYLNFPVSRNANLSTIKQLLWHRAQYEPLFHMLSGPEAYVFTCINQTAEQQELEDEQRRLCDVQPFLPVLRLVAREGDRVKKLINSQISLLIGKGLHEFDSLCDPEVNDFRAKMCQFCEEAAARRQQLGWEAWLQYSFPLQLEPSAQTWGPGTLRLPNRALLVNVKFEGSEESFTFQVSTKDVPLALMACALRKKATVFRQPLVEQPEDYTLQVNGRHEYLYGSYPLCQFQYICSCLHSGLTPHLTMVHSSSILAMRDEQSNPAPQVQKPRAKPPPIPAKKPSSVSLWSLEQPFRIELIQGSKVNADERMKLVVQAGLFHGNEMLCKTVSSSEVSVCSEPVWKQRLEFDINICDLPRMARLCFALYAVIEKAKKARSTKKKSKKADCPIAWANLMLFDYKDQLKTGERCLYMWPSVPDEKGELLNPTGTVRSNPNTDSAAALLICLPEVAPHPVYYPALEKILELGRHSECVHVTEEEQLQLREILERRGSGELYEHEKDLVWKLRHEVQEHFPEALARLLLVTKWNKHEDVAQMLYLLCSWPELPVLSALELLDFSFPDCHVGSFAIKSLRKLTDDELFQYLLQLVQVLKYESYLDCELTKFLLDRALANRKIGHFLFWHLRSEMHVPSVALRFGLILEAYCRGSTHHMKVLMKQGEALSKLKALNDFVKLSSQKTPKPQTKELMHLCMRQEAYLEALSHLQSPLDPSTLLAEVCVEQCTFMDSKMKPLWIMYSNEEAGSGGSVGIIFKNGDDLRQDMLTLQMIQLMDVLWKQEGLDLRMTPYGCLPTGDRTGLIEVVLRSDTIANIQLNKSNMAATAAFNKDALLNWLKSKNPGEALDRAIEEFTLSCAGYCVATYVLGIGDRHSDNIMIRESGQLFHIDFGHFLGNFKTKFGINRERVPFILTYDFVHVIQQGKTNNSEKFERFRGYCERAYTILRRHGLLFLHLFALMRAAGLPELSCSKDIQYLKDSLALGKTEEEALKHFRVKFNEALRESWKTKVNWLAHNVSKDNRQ
Sequence (P27986 whole entry partner): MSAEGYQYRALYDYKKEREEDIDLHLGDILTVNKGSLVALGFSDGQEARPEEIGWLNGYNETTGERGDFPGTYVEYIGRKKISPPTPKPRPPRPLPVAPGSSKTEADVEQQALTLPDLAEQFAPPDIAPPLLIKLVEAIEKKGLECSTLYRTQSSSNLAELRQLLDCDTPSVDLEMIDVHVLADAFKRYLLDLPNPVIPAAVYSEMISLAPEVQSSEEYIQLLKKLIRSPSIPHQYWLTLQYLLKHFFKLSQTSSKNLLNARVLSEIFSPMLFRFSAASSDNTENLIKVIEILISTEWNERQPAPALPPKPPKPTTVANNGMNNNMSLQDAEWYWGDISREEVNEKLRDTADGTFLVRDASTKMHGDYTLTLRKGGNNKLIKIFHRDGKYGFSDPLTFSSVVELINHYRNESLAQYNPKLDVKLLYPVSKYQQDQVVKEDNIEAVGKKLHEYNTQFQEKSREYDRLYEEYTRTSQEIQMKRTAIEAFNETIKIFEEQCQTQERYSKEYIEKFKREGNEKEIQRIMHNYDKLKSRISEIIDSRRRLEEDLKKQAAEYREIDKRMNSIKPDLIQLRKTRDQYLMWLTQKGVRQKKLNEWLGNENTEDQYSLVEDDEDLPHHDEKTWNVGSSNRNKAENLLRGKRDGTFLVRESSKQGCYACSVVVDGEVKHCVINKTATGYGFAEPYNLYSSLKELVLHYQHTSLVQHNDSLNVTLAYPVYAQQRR

{"columns": ["compound", "IC50"],
 "data": [
  ["Nc1nc2cc(-c3ccc4ncc(N5CC[C@@H](N6CCOCC6)C5)nc4c3)ccc2o1", "< 10 µM"],
  ["Nc1nc2cc(-c3ccc4ncn(CCCN5CCCC5)c(=O)c4c3)ccc2o1", "< 10 µM"],
  ["CC(=O)N1CCN(c2cnc3ccc(-c4ccc5oc(N)nc5c4)cc3n2)CC1", "< 0.1 µM"],
  ["Nc1nc2cc(-c3ccc4ncc(C(=O)N5CCNCC5)n4c3)ccc2o1", "> 10 µM"],
  ["Nc1nc2cc(-c3ccc4ncnc(NC5CCN(C(=O)C6CC6)CC5)c4c3)ccc2o1", "< 0.1 µM"],
  ["CN1CCN(CCn2cnc3ccc(-c4ccc5oc(N)nc5c4)cc3c2=O)CC1", "> 10 µM"],
  ["Nc1nc2cc(-c3ccc4ncc(N5CCNC(=O)C5)nc4c3)ccc2o1", "> 10 µM"],
  ["Cc1cn(-c2cnc3ccc(-c4ccc5oc(N)nc5c4)cc3n2)cn1", "> 10 µM"],
  ["Nc1nc2cc(-c3ccc4ncc(N5CCN(C(=O)[C@H](N)CO)CC5)nc4c3)ccc2o1", "< 0.1 µM"],
  ["Cc1cc(-c2ccc3oc(N)nc3c2)cn2c(C(=O)N3CCOCC3)cnc12", "> 10 µM"],
  ["NC(=O)[C@@H]1CCCN1C(=O)C1CN(c2cnc3ccc(-c4ccc5oc(N)nc5c4)cc3n2)C1", "> 10 µM"],
  ["Nc1nc2cc(-c3ccc4ncc(C(=O)N5CC[C@H](n6cccn6)C5)n4c3)ccc2o1", "< 1 µM"],
  ["Cc1c(-c2ccc3ncc(N4CC(N5CCOCC5)C4)nc3c2)ccc2oc(N)nc12", "> 10 µM"],
  ["O=C(c1cnc2ccc(-c3ccc(Cl)c(NS(=O)(=O)c4ccccc4)c3)cn12)N1CCOCC1", "> 10 µM"],
  ["Nc1nc2cc(-c3ccc4ncc(C(=O)NCCO)n4c3)ccc2o1", "< 1 µM"],
  ["CC1CN(C(=O)c2cnc3ccc(-c4ccc5oc(N)nc5c4)cn23)CC(C)N1 (centres unmarked)", "> 10 µM"],
  ["Cc1cn(C2CN(c3cnc4ccc(-c5ccc6oc(N)nc6c5)cc4n3)C2)cn1", "< 1 µM"]
]}

The origin of these recorded values is patent US20150087627A1.
